- EXPERIMENTAL_SYSTEM: T1, human TMEM106B (human, UniProt Q9NUM4 2-274)
- T1 construct: Full-length, on transiently transfected HEK293 cells, or natively expressed on HeLa, U251 and A549 cells; also called huTMEM106B; huTMEM
- TEST_DETAILS: FACS U251;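 note: flow cytometry of cells exposed to antibody (purified at 10 µg/mL, or hybridoma supernatant) for 1 h on ice, with propidium iodide-positive dead cells gated out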
We label by threshold. Values of MFI strictly beneath 400 are fulfilled. Values of 400 and up are not fulfilled.

Examples from the recorded data:
anti-TMEM106B antibody TM-26 (antibody, V domains shown) VH: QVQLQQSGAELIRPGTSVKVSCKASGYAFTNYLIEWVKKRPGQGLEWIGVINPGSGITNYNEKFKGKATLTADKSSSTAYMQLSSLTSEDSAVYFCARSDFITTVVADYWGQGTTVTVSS VL: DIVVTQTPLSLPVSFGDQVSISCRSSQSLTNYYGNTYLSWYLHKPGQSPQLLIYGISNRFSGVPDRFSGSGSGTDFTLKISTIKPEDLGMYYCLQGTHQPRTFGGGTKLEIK	fulfilled
anti-TMEM106B antibody TM-21 (antibody, V domains shown) VH: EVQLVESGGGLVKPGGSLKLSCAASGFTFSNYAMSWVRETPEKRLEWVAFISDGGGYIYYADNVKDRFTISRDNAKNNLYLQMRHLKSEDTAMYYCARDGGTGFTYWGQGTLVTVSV VL: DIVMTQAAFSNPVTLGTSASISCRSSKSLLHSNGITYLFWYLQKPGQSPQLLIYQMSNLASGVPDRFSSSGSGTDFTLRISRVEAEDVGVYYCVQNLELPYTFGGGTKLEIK	not fulfilled
anti-TMEM106B antibody TM-23 (antibody, V domains shown) VH: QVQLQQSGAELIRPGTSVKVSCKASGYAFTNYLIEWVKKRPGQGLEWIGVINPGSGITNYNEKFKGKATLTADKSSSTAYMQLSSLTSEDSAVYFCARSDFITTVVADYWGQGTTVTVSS VL: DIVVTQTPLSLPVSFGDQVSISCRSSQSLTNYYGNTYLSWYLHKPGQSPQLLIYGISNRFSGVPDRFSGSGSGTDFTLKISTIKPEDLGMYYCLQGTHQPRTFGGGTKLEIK	fulfilled

// query Bench note: check whether anti-TMEM106B antibody TM-12 (antibody, V domains shown) VH: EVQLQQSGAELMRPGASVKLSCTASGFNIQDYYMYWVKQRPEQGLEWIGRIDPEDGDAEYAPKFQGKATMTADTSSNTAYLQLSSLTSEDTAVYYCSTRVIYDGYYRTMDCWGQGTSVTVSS VL: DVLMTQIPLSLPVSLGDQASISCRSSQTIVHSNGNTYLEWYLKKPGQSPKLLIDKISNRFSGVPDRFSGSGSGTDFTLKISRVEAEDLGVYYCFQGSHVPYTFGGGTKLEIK shows MFI below 400
// result not fulfilled

// query Bench note: check whether anti-TMEM106B antibody TM-4 (antibody, V domains shown) VH: EVQVQQSGPVLVKPGASVKMSCKASGYTFTDYYMNWVKQSHGKNLEWIGVINPYNGGTSYHQKFKGKATLTVDKSSSTAYMELNSLTSEDSAVYYCARAATVVAGFDYWGQGTTLTVSS VL: QAVVTQESALTTSPGETVTLTCRSSTGAVTTSNYANWVQEKPDHLFTGLIGGTNNRAPGVPARFSGSLIGDKAALTITGAQTEDEAIYFCVLWYSNHLVFGGGTKLTVL shows MFI below 400
// result fulfilled

// query Bench note: check whether anti-TMEM106B antibody TM-18 (antibody, V domains shown) VH: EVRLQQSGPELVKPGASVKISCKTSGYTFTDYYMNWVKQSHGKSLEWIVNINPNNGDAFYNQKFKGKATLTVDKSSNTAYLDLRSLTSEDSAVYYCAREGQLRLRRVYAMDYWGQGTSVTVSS VL: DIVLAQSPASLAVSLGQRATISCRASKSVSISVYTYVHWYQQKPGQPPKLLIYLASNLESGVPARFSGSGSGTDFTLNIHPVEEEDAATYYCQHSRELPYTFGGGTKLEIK shows MFI below 400
// result not fulfilled

// query Bench note: check whether anti-TMEM106B antibody TM-49 (antibody, V domains shown, mouse IgG from hybridoma) VH: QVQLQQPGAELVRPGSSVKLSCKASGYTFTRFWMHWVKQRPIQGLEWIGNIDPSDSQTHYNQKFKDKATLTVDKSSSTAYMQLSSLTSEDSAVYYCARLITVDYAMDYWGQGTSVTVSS VL: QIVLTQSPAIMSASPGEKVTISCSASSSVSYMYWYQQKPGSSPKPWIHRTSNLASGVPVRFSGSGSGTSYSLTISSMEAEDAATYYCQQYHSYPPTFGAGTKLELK shows MFI below 400
// result not fulfilled

// query Bench note: check whether anti-TMEM106B antibody TM-42 (antibody, V domains shown) VH: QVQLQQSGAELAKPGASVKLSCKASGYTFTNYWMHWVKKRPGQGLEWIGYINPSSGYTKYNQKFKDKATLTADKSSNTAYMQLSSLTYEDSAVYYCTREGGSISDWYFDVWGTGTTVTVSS VL: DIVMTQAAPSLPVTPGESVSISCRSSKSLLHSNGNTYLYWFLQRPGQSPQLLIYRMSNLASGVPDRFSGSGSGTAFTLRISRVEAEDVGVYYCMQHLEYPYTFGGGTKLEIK shows MFI below 400
// result fulfilled

// query Bench note: check whether anti-TMEM106B antibody TM-29 (antibody, V domains shown) VH: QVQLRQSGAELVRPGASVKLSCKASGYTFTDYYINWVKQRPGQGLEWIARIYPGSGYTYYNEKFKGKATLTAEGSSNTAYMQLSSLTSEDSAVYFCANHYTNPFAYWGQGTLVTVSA VL: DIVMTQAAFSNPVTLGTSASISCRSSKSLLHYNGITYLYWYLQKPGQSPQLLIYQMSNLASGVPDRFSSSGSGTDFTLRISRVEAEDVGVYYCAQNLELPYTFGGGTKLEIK shows MFI below 400
// result not fulfilled

// query Bench note: check whether anti-TMEM106B antibody TM-48 (antibody, V domains shown) VH: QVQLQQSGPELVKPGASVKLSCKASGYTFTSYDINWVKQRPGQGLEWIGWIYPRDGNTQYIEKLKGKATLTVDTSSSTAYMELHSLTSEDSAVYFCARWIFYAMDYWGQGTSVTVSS VL: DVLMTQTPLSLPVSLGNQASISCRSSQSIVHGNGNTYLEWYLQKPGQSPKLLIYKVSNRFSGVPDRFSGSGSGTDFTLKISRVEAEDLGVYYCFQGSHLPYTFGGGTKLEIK shows MFI below 400
// result fulfilled
